The compounds listed here are annotated with their IC50.
assayTarget: Dual specificity protein phosphatase 6 (Rattus norvegicus) (UniProt Q64346)
Sequence (Q64346 whole entry, looked up): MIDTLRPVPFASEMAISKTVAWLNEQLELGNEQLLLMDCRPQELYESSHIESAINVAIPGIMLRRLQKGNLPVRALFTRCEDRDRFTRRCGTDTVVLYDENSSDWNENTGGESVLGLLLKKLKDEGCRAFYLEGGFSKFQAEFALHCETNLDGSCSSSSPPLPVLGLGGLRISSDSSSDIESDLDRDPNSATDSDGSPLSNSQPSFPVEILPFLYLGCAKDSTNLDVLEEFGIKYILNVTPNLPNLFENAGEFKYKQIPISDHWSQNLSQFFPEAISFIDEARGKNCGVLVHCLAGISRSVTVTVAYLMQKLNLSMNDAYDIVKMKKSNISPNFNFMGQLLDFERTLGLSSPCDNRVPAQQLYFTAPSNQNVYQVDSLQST
assayName: DUSP6 phosphatase inhibition, redox-sensitive – biochemical, rat enzyme, secondary assay (AID 1054)
assayContext: recombinant MKP-3 phosphatase activity, redox-state secondary assay
Active and inactive are the calls of the source. How the calls were made is not given here.
readoutType: IC50

compound	observed
O=C(O)C1Nc2c(F)cccc2C2C=CCC12 (centres undefined)	17.2 µM
O=C(O)C1Nc2ccccc2C2C=CCC12 (centres undefined)	25.2 µM
Cc1cc(NC(=O)CCc2ccc(C)o2)no1	> 100 µM (inactive)
CCCn1c(=O)nc(NCCc2ccccc2)[nH]c1=O	> 100 µM (inactive)
NC(=O)[C@H](Cc1ccccc1)n1c(=O)[nH]c(=O)n(-c2ccc(Cl)cc2)c1=O	> 100 µM (inactive)
O=C(Oc1ccc(-c2ccccc2)cc1)c1cccc2c1NC(C(=O)O)C1CC=CC21 (centres undefined)	3.5 µM
CCCCCCCCCCCCCCCCCCC#CCCCCCCCCCCC(=O)O	> 100 µM (inactive)
O=c1/c(=C/c2ccco2)sc2nc3cc(Br)cnc3n12	4.56 µM
CCOC(=O)C1Nc2c(O)ccc(C)c2C2C=CCC12 (centres undefined)	> 100 µM (inactive)
CCCCCC#CCC#CCC#CCC#CCCCC(=O)O	30.4 µM
COc1cc(C(=S)NCc2ccccc2)ccc1O	4.46 µM
O=C(O)[C@@H](O)c1ccccc1	> 100 µM (inactive)
Cc1ccc(O)c2c1C1C=CCC1C(C(=O)O)N2 (centres undefined)	86.4 µM
COc1ccc(N2Cc3cccc(C(=O)O)c3C2=O)cc1	> 100 µM (inactive)
O=C(Oc1ccc2ccccc2c1)c1ccc2c(c1)C1C=CCC1C(C(=O)O)N2 (centres undefined)	24.7 µM
O=C(Cc1cccs1)Nc1ccon1	> 100 µM (inactive)
O=c1/c(=C/c2ccccc2Cl)sc2nc3cc(Br)cnc3n12	2.5 µM
COc1cc(C(=S)NCc2ccc(Cl)c(C)c2)ccc1O	10.5 µM
Cn1c(=O)n(-c2ccc(Cl)cc2)c(=O)n([C@@H](Cc2ccccc2)C(N)=O)c1=O	> 100 µM (inactive)
C[C@@H](C(N)=O)n1c(=O)n(Cc2ccccc2)c(=O)n(-c2ccccc2)c1=O	> 100 µM (inactive)
CCOC(=O)C1=C(C)N=c2sc(=Cc3ccc(OCC(=O)O)cc3)c(=O)n2C1c1ccc(SC)cc1 (centres undefined)	9.08 µM
CCOC(=O)c1ccccc1OC(=O)c1ccc2c(c1)C1C=CCC1C(C(=O)O)N2 (centres undefined)	6.01 µM
O=c1/c(=C/c2ccc(-c3cc(Cl)cc(Cl)c3)o2)sc2nc3cc(Br)cnc3n12	14.8 µM
CCOC(=O)C1=C(C)N=c2sc(=Cc3ccc(OCC(=O)O)cc3)c(=O)n2C1c1ccc(Cl)cc1 (centres undefined)	16.8 µM
O=C(O)c1ccccc1-c1ccc(/C=c2\sc3nc4cc(Br)cnc4n3c2=O)o1	3.11 µM
Cc1ccc2c(nc3s/c(=C\c4ccc(-c5ccccc5C(=O)O)o4)c(=O)n32)c1C	21.6 µM
O=C1c2ccccc2CC1Sc1nnc(-c2ccco2)c(-c2ccco2)n1 (centres undefined)	42 µM
Cc1cc(NC(=O)Cc2cccs2)no1	13.1 µM
CC(C)[C@@H](C(N)=O)n1c(=O)[nH]c(=O)n(-c2ccc(Cl)cc2)c1=O	> 100 µM (inactive)
Cc1ccc(C)n1C(Cc1ccccc1)C(=O)O (centres undefined)	> 100 µM (inactive)
O=C(O)C1Nc2cc(Cl)cc(Cl)c2C2C=CCC12 (centres undefined)	> 100 µM (inactive)
C#CCCCCCCCCCCCCCCCCCC	> 100 µM (inactive)
COc1ccc2c(c1)C1C=CCC1C(C(=O)O)N2 (centres undefined)	32 µM
Cc1cc(O)c2c(c1)C1C=CCC1C(C(=O)O)N2 (centres undefined)	> 100 µM (inactive)

Taken from PubChem BioAssay AID1054.
